I'd appreciate it if you could supply IC50 values for the items below.
Tested on: 425362-245-T-J1 tumor spheroids, viability % test/control
Assay: Anticancer human tumor 425362-245-T-J1 patient-derived melanoma cell line growth inhibition
Conditions: curve of first compound; second compound 0.00949 µM; spheroids with HUVEC and MSC

These solved cases illustrate the format of a correct answer.
COc1ccc([C@@H](O)c2cc(-c3ncnc4cc(N5CCOCC5)ccc34)c(F)cc2Cl)nn1 + CC[C@@]1(O)C(=O)OCc2c1cc1n(c2=O)Cc2cc3c(CN(C)C)c(O)ccc3nc2-1	1110 nM
CNCc1ccc(-c2cc(-c3nc(-c4ccc(S(=O)(=O)C(C)C)cc4)cnc3N)on2)cc1 + CC[C@@]1(O)C(=O)OCc2c1cc1n(c2=O)Cc2cc3c(CN(C)C)c(O)ccc3nc2-1	47.5 nM
Cn1ncnc1[C@H]1c2n[nH]c(=O)c3cc(F)cc(c23)N[C@@H]1c1ccc(F)cc1 + CC[C@@]1(O)C(=O)OCc2c1cc1n(c2=O)Cc2cc3c(CN(C)C)c(O)ccc3nc2-1	< 9.49 nM
O=C(c1cc(Cc2n[nH]c(=O)c3ccccc23)ccc1F)N1CCN(C(=O)C2CC2)CC1 + CC[C@@]1(O)C(=O)OCc2c1cc1n(c2=O)Cc2cc3c(CN(C)C)c(O)ccc3nc2-1	650 nM
Cc1sc2c(c1C)C(c1ccc(Cl)cc1)=NC(CC(=O)Nc1ccc(O)cc1)c1nnc(C)n1-2 (configuration not stated) + CC[C@@]1(O)C(=O)OCc2c1cc1n(c2=O)Cc2cc3c(CN(C)C)c(O)ccc3nc2-1	52.3 nM
CC(C)n1c(=O)n(C)c2cnc3cc(F)c(-c4ccc(OCCCN5CCCCC5)nc4)cc3c21 + CC[C@@]1(O)C(=O)OCc2c1cc1n(c2=O)Cc2cc3c(CN(C)C)c(O)ccc3nc2-1	< 31.6 nM

Case CC1COCCN1c1cc(-c2ccnn2C)c2ccnc(-c3ccn[nH]3)c2n1 (configuration not stated) + CC[C@@]1(O)C(=O)OCc2c1cc1n(c2=O)Cc2cc3c(CN(C)C)c(O)ccc3nc2-1 , 425362-245-T-J1 tumor spheroids, viability % test/control, IC50 recorded as < 31.6 nM

###

Test system: 425362-245-T-J1 tumor spheroids, viability % test/control
Test: Anticancer human tumor 425362-245-T-J1 cell line growth inhibition;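 further: spheroids exposed to agents for 7 days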;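 on viability, T/C: 100% = DMSO vehicle control viability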
Settings: second compound 100 µM; first compound 3 µM; stronger effect = lower value; spheroids with HUVEC and MSC
assay readout: viability, T/C (%)
Numbers only, in %.

In the examples that follow, each entry is paired with its recorded viability, T/C.
CNCc1ccc(-c2cc(-c3nc(-c4ccc(S(=O)(=O)C(C)C)cc4)cnc3N)on2)cc1 + Cn1nnc2c(C(N)=O)ncn2c1=O	0.16
O=C(c1cc(Cc2n[nH]c(=O)c3ccccc23)ccc1F)N1CCN(C(=O)C2CC2)CC1 + Cn1nnc2c(C(N)=O)ncn2c1=O	10
Cn1ncnc1[C@H]1c2n[nH]c(=O)c3cc(F)cc(c23)N[C@@H]1c1ccc(F)cc1 + Cn1nnc2c(C(N)=O)ncn2c1=O	2.46

I looked up Cc1sc2c(c1C)C(c1ccc(Cl)cc1)=NC(CC(=O)Nc1ccc(O)cc1)c1nnc(C)n1-2 (centres undefined) + Cn1nnc2c(C(N)=O)ncn2c1=O and its viability, T/C for 425362-245-T-J1 tumor spheroids, viability % test/control was 1.57
